Reported TGI is given for each of the following molecules.
Tested on: CAKI-1 renal
Assay Remarks: NCI tumour cell line growth inhibition, 48 h
Readout: TGI

>>> result("O=C(O)CCSc1nnc(COc2ccc(Cl)cc2)n1-c1ccccc1")
"> 100 µM"
>>> result("Cc1c(Cl)ccc2c1NC(=O)C2(O)C1Cc2ccccc2C1=O (stereo not given)")
"> 100 µM"
>>> result("CC(C)C(Cl)CC/C(CBr)=C(\\Cl)CCl (stereo not given)")
"17.9 µM"
>>> result("CC[C@H](C)C(=O)O[C@H]1CCC=C2C=C[C@H](C)C(CCC3C[C@@H](O)CC(=O)O3)[C@H]21 (stereo not given in full)")
"4.96 µM"
>>> result("O=C(CCCN1CC=C(n2c(=O)[nH]c3ccccc32)CC1)c1cccs1")
"> 100 µM"
>>> result("N#CC1=C(N)Nc2nc3ccccc3n2C1c1ccccc1 (stereo not given)")
"> 100 µM"
>>> result("CCC(=C(c1ccc(OCc2ccccc2)cc1)c1ccc(OCc2ccccc2)cc1)c1ccc(OC)cc1")
"> 100 µM"
>>> result("C/C1=C\\CC[C@@]2(C)O[C@@H]2[C@H]2OC(=O)C(C)C2C[C@H]1O (stereo not given in full)")
"> 100 µM"
>>> result("COc1cc(/C=C2\\N=C(c3ccccc3)N(/N=C/c3cc4cc(C)ccc4nc3Cl)C2=O)cc(OC)c1OC")
"> 100 µM"
>>> result("CN=S(=O)(C[C@]1(O)CC2OC1C1OC(C)(C)OC21)c1ccccc1 (stereo not given in full)")
"> 100 µM"

###

System: COLO 205 colon
Assay Remarks: NCI tumour cell line growth inhibition, 48 h
Readout: TGI

>>> result("CCCCCCCCCCCC(=O)OCC1OC(n2cc(F)c(=O)[nH]c2=O)C(N)C(O)C1O (stereo not given)")
"> 100 µM"
>>> result("Clc1ccc2nc(CCSCCc3nc4ccc(Cl)cc4[nH]3)[nH]c2c1")
"29 µM"
>>> result("COc1cc(-c2c(C)c(C)nc(OC)c2C#N)cc(OC)c1OC")
"> 100 µM"
>>> result("N=C(N)C1CN(CC=O)C(=O)NC1=O (stereo not given)")
"> 100 µM"
>>> result("COC(=O)/C(=C/CC(N=C(c1ccccc1)c1ccccc1)C(=O)OC)N=C(c1ccccc1)c1ccccc1 (stereo not given)")
"> 100 µM"

###

Test system: CCRF-CEM leukemia
Assay Remarks: NCI tumour cell line growth inhibition, 48 h
Readout: TGI

>>> result("COc1cc2c3c(n(C4CCNCC4)c(=O)c2cc1OC)-c1cc2c(cc1C3=O)OCO2")
"2.25 µM"
>>> result("Cc1ccc(C2=NO[C@@H]3C(=O)N(c4ccc(Cc5ccc(N6C(=O)[C@H]7C(c8ccc(C)cc8)=NO[C@H]7C6=O)cc5)cc4)C(=O)[C@H]23)cc1")
"> 100 µM"
>>> result("Nc1ccc(Oc2ccc(C3(c4ccc(Oc5ccc(N)c(O)c5)cc4)C4CC5C6CC7CC5C3C(C7)C6C4)cc2)cc1O")
"> 100 µM"
>>> result("O=c1[nH]n(Cc2ccccc2CCl)c2ccc([N+](=O)[O-])cc12")
"> 100 µM"
>>> result("CN=S(=O)(C[C@]1(O)CC2OC1C1OC(C)(C)OC21)c1ccccc1 (some centres undefined)")
"> 100 µM"
>>> result("CC(C)(C)C(=O)Nc1cccc(-c2ccc[nH]2)n1")
"> 100 µM"
>>> result("CC(C)(CCCCC(C)(C)NCC1COc2ccccc2O1)NCC1COc2ccccc2O1 (centres undefined)")
"> 10 µM"
>>> result("O=C(/C=C\\Sc1nccc(C(F)(F)F)n1)c1ccc(Br)cc1")
"11.9 µM"
>>> result("COC(=O)Nc1nc2ccc(Oc3ccc(NC(=O)Nc4cccc(Cl)c4)cc3)cc2[nH]1")
"> 15 µM"
>>> result("COC1CC2CCC(C)[C@](O)(O2)C(=O)C(=O)N2CCCCC2C(=O)OC(C(C)CC2CCC(O)C(OC)C2)CC(=O)C(C)C=C(C)C(OC(=O)CN(C)C)C(OC)C(=O)C(C)CC(C)/C=C/C=C/C=C\\1C (some centres undefined)")
"5.42 µM"
>>> result("CC(=O)Nc1ccc(/C=C/C(=O)c2sc(C(N)=S)nc2C)cc1")
"> 100 µM"
>>> result("CC[C@H](C)C(=O)O[C@H]1CCC=C2C=C[C@H](C)C(CCC3C[C@@H](O)CC(=O)O3)[C@H]21 (some centres undefined)")
"> 100 µM"
>>> result("CN1CCC/C1=C1\\C(=O)c2cccn2C1=O")
"> 100 µM"
>>> result("CCn1c(SCC(=O)NNC(=S)Nc2ccc(F)cc2)nc2ccccc2c1=O")
"> 100 µM"
>>> result("O=C(O)c1cccc(CC(Br)C(=O)O)c1 (centres undefined)")
"> 100 µM"
>>> result("CC(C)N(c1cc2c(cc1F)c(=O)c(C(=O)O)cn2-c1ccc(N2CCN(C)CC2)cn1)C(C)C")
"> 100 µM"
>>> result("C/C(=N/NC(=S)N1CCCC1)c1cccc(/C(C)=N\\NC(=S)N2CCCC2)n1")
"3.01 µM"
>>> result("Cc1cc(C)n(-c2c(O)ccc(O)c2-n2nc(C)cc2C)n1")
"> 100 µM"
>>> result("CC1(C)OC(=O)CC12CCN(Cc1ccccc1)CC2")
"> 100 µM"

###

Reported TGI is given for each of the following compounds.
Tested on: CAKI-1 renal
Assay Remarks: NCI tumour cell line growth inhibition, 48 h
Readout: TGI

>>> result("COC(=O)/C=C(\\S/C(=C(/c1ccc(OC)cc1)n1cc(C(=O)OC)c(C(=O)OC)n1)c1ccc(OC)cc1)C(=O)OC")
"6.41 µM"
>>> result("CN(CCC(=O)O)S(=O)(=O)c1ccccc1")
"> 100 µM"
>>> result("CCOn1cc(C2=C(c3c[nH]c4ccccc34)C(=O)NC2=O)c2ccccc21")
"< 0.0306 µM"
>>> result("O=C(Nc1ccccc1)C(=O)C(C(=O)c1ccccc1)C(c1ccccc1)c1ccccc1 (stereo not given)")
"> 10 µM"
>>> result("CO[C@H]1CC[C@@]2(C)C(=CC[C@H]3[C@@H]4C[C@H](O)C[C@@]4(C)CC[C@@H]32)C1")
"16.3 µM"
>>> result("COc1ccc2c(c1)Cc1c-2c(NN)nc2ccccc12")
"> 100 µM"
>>> result("CCCCCCCCCC(=O)OCC1OC(n2cc(F)c(=O)[nH]c2=O)C(N)C(OC(=O)CCCCCCCCC)C1O (stereo not given)")
"> 100 µM"
>>> result("CC(C)=CCC[C@@H](C)C1=C(Nc2ccccc2)C(O)=C(C)C(=O)C1=O")
"11.8 µM"
>>> result("CN1CCN(Cc2ccc(NC(=O)c3cncc(C#Cc4c(N)ncc5cc(F)ccc45)c3)cc2C(F)(F)F)CC1")
"10.1 µM"
>>> result("O=C(NCC#CCO)C(F)(F)F")
"> 100 µM"
>>> result("COc1ccccc1N1C(=O)/C(=C\\c2cc(OC)c(OC)c(OC)c2)S(=O)(=O)C1c1ccccc1 (stereo not given)")
"> 100 µM"
>>> result("COc1cc2c3c(n(C4CCNCC4)c(=O)c2cc1OC)-c1cc2c(cc1C3=O)OCO2")
"1.6 µM"
>>> result("COC(=O)C1=CC2OC1(C)C1(CC1)C2=O (stereo not given)")
"33.5 µM"
>>> result("CC(CCC(=O)O)[C@H]1CCC2[C@H]3C(CC(=O)[C@@]21C)[C@@]1(C)CCC(O)C[C@H]1C[C@@H]3O (stereo not given in full)")
"> 100 µM"
>>> result("O=C1/C(=C/c2ccccc2)CCCC/C1=C\\c1ccccc1")
"> 100 µM"
>>> result("O=C(O)CNCc1c2ccccc2[n+]([O-])c2ccccc12")
"> 100 µM"
>>> result("CNC1C(O)CC(OC2C/C=C(\\C)C/C(C)=C/C=C/CCC(C)CNC(=O)/C=C/C=C/C2C)OC1C (stereo not given)")
"1.6 µM"
>>> result("CC(C)(CCCCC(C)(C)NCC1COc2ccccc2O1)NCC1COc2ccccc2O1 (stereo not given)")
"> 10 µM"
>>> result("O=c1[nH]c2ccsc2c(=O)n1COCc1ccccc1")
"> 100 µM"
>>> result("COc1ccccc1CNCc1nc2ccccc2[nH]1")
"> 100 µM"

###

Test system: MDA-MB-435
Assay Remarks: NCI tumour cell line growth inhibition, 48 h
Readout: TGI (µM)

>>> readout_number("CN1CCN(Cc2ccc(Nc3ncc(Cl)c(Nc4ccccc4S(=O)(=O)N(C)C)n3)cc2)CC1")
0.429
>>> readout_number("CC(C)=CCC/C(C)=C/CC/C(=C/COP(=O)(OCc1ccc([N+](=O)[O-])o1)N(C)CCCCCl)C(C)(C)C (stereo not given)")
30.8
>>> readout_number("Cc1ccc2sc3c(NCCCNCCO)nc4ccccc4c3c(=O)c2c1")
3.27
